These measurements were taken from patent US7078556B2.

Test system: Enterococcus faecium 4558
Test: MIC by broth dilution
Format: cell-based
Conditions: Table 2, 18 hours at 35° C.
Readings of MIC for the listed compounds
Give the quantity in µg/mL, number only.

[[record]]
compound = "CCCC(=O)O[C@H]1c2cc(C)cc(O)c2C(O)=C2C(=O)[C@H]3C=C[C@]21Cc1cc(O)c(C(=O)c2c(O)ccc(O)c2C(=O)OC)c(O)c13 [Example 6, Cyan-416 B butyrate]"
quantitative_result = 8


Request: MIC lookup needed for CCCCC(=O)O[C@H]1c2cc(C)cc(O)c2C(O)=C2C(=O)[C@H]3C=C[C@]21Cc1cc(O)c(C(=O)c2c(O)ccc(O)c2C(=O)OC)c(O)c13 [Example 8, Cyan-416 B pentanoate] , thanks.
Result: 2

Request: Field request: MIC | item: COC(=O)c1c(O)ccc(O)c1C(=O)c1c(O)cc2c(c1O)[C@@H]1C=C[C@]3(C2)C(=C(O)c2c(O)cc(C)cc2[C@@H]3OC(=O)C(C)C)C1=O [Example 7, Cyan-416 B isobutyrate]
Result: 2

Request: May I ask what MIC has been recorded for CCCCCC(=O)O[C@H]1c2cc(C)cc(O)c2C(O)=C2C(=O)[C@H]3C=C[C@]21Cc1cc(O)c(C(=O)c2c(O)ccc(O)c2C(=O)OC)c(O)c13 [Example 9, Cyan-416 B hexanoate] ?
Result: 2

Request: Tell me the measured MIC of COC(=O)c1c(O)ccc(O)c1C(=O)c1c(O)cc2c(c1O)[C@@H]1C=C[C@]3(C2)C(=C(O)c2c(O)cc(C)cc2[C@@H]3OC(C)=O)C1=O , please.
Result: 8
